# Assayed System: T1, human GIP receptor (human, UniProt P48546 22-466)
# T1 sequence (looked up): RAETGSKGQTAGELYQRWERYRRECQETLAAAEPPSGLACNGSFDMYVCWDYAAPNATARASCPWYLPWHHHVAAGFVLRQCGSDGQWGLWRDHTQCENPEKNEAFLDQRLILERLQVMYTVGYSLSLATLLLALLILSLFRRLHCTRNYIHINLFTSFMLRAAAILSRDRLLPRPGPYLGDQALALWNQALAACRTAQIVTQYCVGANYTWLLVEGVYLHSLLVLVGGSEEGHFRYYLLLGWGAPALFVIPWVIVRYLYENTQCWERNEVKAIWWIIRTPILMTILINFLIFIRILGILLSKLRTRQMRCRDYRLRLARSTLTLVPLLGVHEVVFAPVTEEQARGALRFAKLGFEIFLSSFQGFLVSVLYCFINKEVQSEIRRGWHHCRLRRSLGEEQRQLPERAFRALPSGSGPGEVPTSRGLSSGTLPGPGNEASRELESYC
# Assay Remarks: cell-based or functional assay
Rule: measured cAMP EC50 (1.0% HSA) below 800 pM gets Condition met; anything equal to or greater than 800 pM gets Condition not met.

{"columns": ["Binder", "Group Label"],
 "data": [
  ["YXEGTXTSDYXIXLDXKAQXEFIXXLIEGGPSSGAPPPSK (Y-Aib-EGT-αMeF(2F)-TSDY-Aib-I-αMeL-LD-Orn-K((2-[2-(2-Amino-ethoxy)-ethoxy]-acetyl)2-(γ-Glu)-CO-(CH2)12-CO2H)AQ-Aib-EFI-(D-Glu)-αMeY-LIEGGPSSGAPPPSK((2-[2-(2-Amino-ethoxy)-ethoxyl-acetyl)2-(γ-Glu)-CO-(CH2)12-CO2H)-NH2) [Example 232]", "Condition not met"],
  ["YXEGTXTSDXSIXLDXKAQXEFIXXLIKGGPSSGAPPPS (Y-Aib-EGT-αMeF(2F)-TSD-OMeY-SI-αMeL-LD-Orn-K((2-[2-(2-Amino-ethoxy)-ethoxy]-acetyl)2-(γ-Glu)-(10-(4-carboxyphenoxy)decanoyl))AQ-Aib-EFI-(D-Glu)-αMeY-LIK((2-[2-(2-Amino-ethoxy)-ethoxy]-acetyl)2-(γ-Glu)-(10-(4-carboxyphenoxy)decanoyl))GGPSSGAPPPS-NH2) [Example 278]", "Condition not met"],
  ["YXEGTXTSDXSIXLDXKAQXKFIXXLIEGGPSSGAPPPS (Y-Aib-EGT-αMeF(2F)-TSD-Nle-SI-αMeL-LD-Orn-K((2-[2-(2-Amino-ethoxy)-ethoxy]-acetyl)2-(γ-Glu)-(10-(4-carboxyphenoxy)decanoyl))AQ-Aib-K((2-[2-(2-Amino-ethoxy)-ethoxy]-acetyl)2-(γ-Glu)-(10-(4-carboxyphenoxy)decanoyl))FI-(D-Glu)-αMeY-LIEGGPSSGAPPPS-NH2) [Example 321]", "Condition met"],
  ["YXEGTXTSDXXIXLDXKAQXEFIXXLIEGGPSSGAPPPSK (Y-Aib-EGT-αMeF(2F)-TSD-4Pal-Aib-I-αMeL-LD-Orn-K((2-[2-(2-Amino-ethoxy)-ethoxy]-acetyl)2-(γ-Glu)-(10-(4-carboxyphenoxy)decanoyl))AQ-Aib-EFI-(D-Glu)-αMeY-LIEGGPSSGAPPPSK((2-[2-(2-Amino-ethoxy)-ethoxy]-acetyl)2-(γ-Glu)-(10-(4-carboxyphenoxy)decanoyl))-NH2) [Example 245]", "Condition met"],
  ["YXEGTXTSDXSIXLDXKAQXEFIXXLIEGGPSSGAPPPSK (Y-Aib-EGT-αMeF(2F)-TSD-4Pal-SI-αMeL-LD-Orn-K((2-[2-(2-Amino-ethoxy)-ethoxy]-acetyl)2-CO-(CH2)12-CO2H)AQ-Aib-EFI-(D-Glu)-αMeY-LIEGGPSSGAPPPSK((2-[2-(2-Amino-ethoxy)-ethoxy]-acetyl)2-CO-(CH2)12-CO2H)-NH2) [Example 221]", "Condition not met"]
]}

Read the next record carefully.
Prompt: In the record for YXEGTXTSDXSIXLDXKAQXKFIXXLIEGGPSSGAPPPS (Y-Aib-EGT-αMeF(2F)-TSD-OMeY-SI-αMeL-LD-Orn-K((2-[2-(2-Amino-ethoxy)-ethoxy]-acetyl)2-(γ-Glu)-(10-(4-carboxyphenoxy)decanoyl))AQ-Aib-K((2-[2-(2-Amino-ethoxy)-ethoxy]-acetyl)2-(γ-Glu)-(10-(4-carboxyphenoxy)decanoyl))FI-(D-Glu)-αMeY-LIEGGPSSGAPPPS-NH2) [Example 277] , is cAMP EC50 (1.0% HSA) less than 800 pM?
Completion: Condition not met

Reference for the values: patent US20230265151A1
